Readings of shrunken log2 fold change for the listed sequences
System: Escherichia coli TOP10
Test: shrunken log2 fold change of peptide-encoding DNA abundance (4.5 h post-induction vs induction); higher = less antimicrobial activity (less host growth inhibition)
Settings: time post-induction: 4.5 h; library: site-saturation at positions 5, 18, 19, 20
// print number alone

Record excerpt, results attached:
- sequence text: "RRIRKRPPRLPRPRPRPIIIPRP"
  numeric value: -0.104
- sequence text: "RRIRNRPPRLPRPRPRPTASPRP"
  numeric value: 1.61
- sequence text: "RRIRLRPPRLPRPRPRPVWMPRP"
  numeric value: 0.372
- sequence text: "RRIRARPPRLPRPRPRPVVYPRP"
  numeric value: -0.285
- sequence text: "RRIRDRPPRLPRPRPRPKESPRP"
  numeric value: 0.277
- sequence text: "RRIRNRPPRLPRPRPRPHDGPRP"
  numeric value: -0.378

I would be grateful if you could share the reported shrunken log2 fold change for "RRIRQRPPRLPRPRPRPSYYPRP" .
-0.356

I would be grateful if you could share the reported shrunken log2 fold change for "RRIRFRPPRLPRPRPRPRISPRP" .
-0.0207

I would be grateful if you could share the reported shrunken log2 fold change for "RRIRGRPPRLPRPRPRPCRGPRP" .
-0.0404

====

Readings of shrunken log2 fold change for the listed sequences
System: Escherichia coli TOP10
Assay: shrunken log2 fold change of peptide-encoding DNA abundance (4.5 h post-induction vs induction); higher = less antimicrobial activity (less host growth inhibition)
Conditions: time post-induction: 4.5 h; library: site-saturation at positions 5, 18, 19, 20
// print number alone

- sequence text: "RRIRKRPPRLPRPRPRPSKWPRP"
  quantity: "shrunken log2 fold change"
  numeric value: -0.119
- sequence text: "RRIRRRPPRLPRPRPRPAGCPRP"
  quantity: "shrunken log2 fold change"
  numeric value: 0.437
- sequence text: "RRIRNRPPRLPRPRPRPFEYPRP"
  quantity: "shrunken log2 fold change"
  numeric value: -0.266
- sequence text: "RRIRWRPPRLPRPRPRPREEPRP"
  quantity: "shrunken log2 fold change"
  numeric value: 0.55

# get_value(readout= shrunken log2 fold change, system= Escherichia coli TOP10) for "RRIRGRPPRLPRPRPRPFYKPRP"
-0.0686

# get_value(readout= shrunken log2 fold change, system= Escherichia coli TOP10) for "RRIRERPPRLPRPRPRPDWFPRP"
-0.00866

# get_value(readout= shrunken log2 fold change, system= Escherichia coli TOP10) for "RRIRTRPPRLPRPRPRPNDMPRP"
-0.209

# get_value(readout= shrunken log2 fold change, system= Escherichia coli TOP10) for "RRIRERPPRLPRPRPRPTKGPRP"
-0.184

# get_value(readout= shrunken log2 fold change, system= Escherichia coli TOP10) for "RRIRTRPPRLPRPRPRPILNPRP"
-0.403

# get_value(readout= shrunken log2 fold change, system= Escherichia coli TOP10) for "RRIRLRPPRLPRPRPRPMVMPRP"
-0.0937

====

Tested on: Escherichia coli TOP10
Assay: shrunken log2 fold change of peptide-encoding DNA abundance (4.5 h post-induction vs induction); higher = less antimicrobial activity (less host growth inhibition)
Settings: time post-induction: 4.5 h; library: site-saturation at positions 5, 18, 19, 20
quantity: shrunken log2 fold change
// print number alone

Record excerpt, results attached:
- sequence text: "RRIRRRPPRLPRPRPRPNFRPRP"
  shrunken log2 fold change: 0.0627
- sequence text: "RRIRMRPPRLPRPRPRPSPNPRP"
  shrunken log2 fold change: 0.0416
- sequence text: "RRIRMRPPRLPRPRPRPRYLPRP"
  shrunken log2 fold change: -0.0395
- sequence text: "RRIRVRPPRLPRPRPRPDMGPRP"
  shrunken log2 fold change: -0.0133
- sequence text: "RRIRSRPPRLPRPRPRPDVLPRP"
  shrunken log2 fold change: -0.104

I would be grateful if you could share the reported shrunken log2 fold change for "RRIRARPPRLPRPRPRPAIRPRP" .
0.422

I would be grateful if you could share the reported shrunken log2 fold change for "RRIRWRPPRLPRPRPRPGFPPRP" .
-0.0683

====

Test system: Escherichia coli TOP10
Assay: shrunken log2 fold change of peptide-encoding DNA abundance (4.5 h post-induction vs induction); higher = less antimicrobial activity (less host growth inhibition)
Details: time post-induction: 4.5 h; library: site-saturation at positions 5, 18, 19, 20
quantity: shrunken log2 fold change

Record excerpt, results attached:
- sequence text: "RRIRMRPPRLPRPRPRPENTPRP"
  shrunken log2 fold change: 0.427
- sequence text: "RRIRCRPPRLPRPRPRPGYYPRP"
  shrunken log2 fold change: -0.281
- sequence text: "RRIRQRPPRLPRPRPRPYTPPRP"
  shrunken log2 fold change: -0.856
- sequence text: "RRIRKRPPRLPRPRPRPINFPRP"
  shrunken log2 fold change: -0.962
- sequence text: "RRIRYRPPRLPRPRPRPIEYPRP"
  shrunken log2 fold change: -0.0912

I would be grateful if you could share the reported shrunken log2 fold change for "RRIRNRPPRLPRPRPRPPHNPRP" .
0.216

I would be grateful if you could share the reported shrunken log2 fold change for "RRIRFRPPRLPRPRPRPPFIPRP" .
-0.236

I would be grateful if you could share the reported shrunken log2 fold change for "RRIRGRPPRLPRPRPRPEHFPRP" .
0.00955

====

System: Escherichia coli TOP10
Experiment: shrunken log2 fold change of peptide-encoding DNA abundance (4.5 h post-induction vs induction); higher = less antimicrobial activity (less host growth inhibition)
Conditions: time post-induction: 4.5 h; library: site-saturation at positions 5, 18, 19, 20
I'd appreciate it if you could label each record using shrunken log2 fold change and these ranges: low: < -0.03; moderate: ≥ -0.03 and < 0.2; high: ≥ 0.2

Here's what some known entries look like.
- sequence text: "RRIRKRPPRLPRPRPRPWAQPRP"
  system under test: "Escherichia coli TOP10"
  group: "high"
- sequence text: "RRIRYRPPRLPRPRPRPKEQPRP"
  system under test: "Escherichia coli TOP10"
  group: "moderate"
- sequence text: "RRIRTRPPRLPRPRPRPWPDPRP"
  system under test: "Escherichia coli TOP10"
  group: "moderate"
- sequence text: "RRIRYRPPRLPRPRPRPKCVPRP"
  system under test: "Escherichia coli TOP10"
  group: "moderate"

State the band of "RRIRTRPPRLPRPRPRPIGNPRP"
low

State the band of "RRIRSRPPRLPRPRPRPMYAPRP"
low

====

System: Escherichia coli TOP10
Experiment: shrunken log2 fold change of peptide-encoding DNA abundance (4.5 h post-induction vs induction); higher = less antimicrobial activity (less host growth inhibition)
Conditions: time post-induction: 4.5 h; library: site-saturation at positions 5, 18, 19, 20
quantity: shrunken log2 fold change
// print number alone

Record excerpt, results attached:
- sequence text: "RRIRVRPPRLPRPRPRPKSQPRP"
  numeric value: 0.309
- sequence text: "RRIRPRPPRLPRPRPRPEGYPRP"
  numeric value: 0.128
- sequence text: "RRIRGRPPRLPRPRPRPWIYPRP"
  numeric value: -0.372

I would be grateful if you could share the reported shrunken log2 fold change for "RRIRKRPPRLPRPRPRPLWCPRP" .
0.0281

I would be grateful if you could share the reported shrunken log2 fold change for "RRIRARPPRLPRPRPRPHVNPRP" .
-0.467

I would be grateful if you could share the reported shrunken log2 fold change for "RRIRKRPPRLPRPRPRPHWAPRP" .
0.118

====

Tested on: Escherichia coli TOP10;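 note: peptides expressed intracellularly from a pBAD plasmid library in pooled LB shake-flask culture, induced with 0.3% L-arabinose, DNA abundance read by NGS, three biological replicates, DESeq2 with apeglm shrinkage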
Experiment: shrunken log2 fold change of peptide-encoding DNA abundance (4.5 h post-induction vs induction); higher = less antimicrobial activity (less host growth inhibition)
Conditions: time post-induction: 4.5 h; library: site-saturation at positions 5, 18, 19, 20
Please note: class 1 applies when shrunken log2 fold change is -0.2 or greater, and class 0 applies otherwise.

Here's what some known entries look like.
- sequence text: "RRIRIRPPRLPRPRPRPWWLPRP"
  group: "class 1"
- sequence text: "RRIRSRPPRLPRPRPRPYWHPRP"
  group: "class 0"
- sequence text: "RRIRHRPPRLPRPRPRPLTLPRP"
  group: "class 1"
- sequence text: "RRIRVRPPRLPRPRPRPNPLPRP"
  group: "class 1"
- sequence text: "RRIRHRPPRLPRPRPRPSNKPRP"
  group: "class 0"
- sequence text: "RRIRMRPPRLPRPRPRPGCIPRP"
  group: "class 1"

Hello, I need to know if "RRIRRRPPRLPRPRPRPRGTPRP" has measured shrunken log2 fold change not below -0.2. Thanks!
class 1

Hello, I need to know if "RRIRFRPPRLPRPRPRPSLSPRP" has measured shrunken log2 fold change not below -0.2. Thanks!
class 0

Hello, I need to know if "RRIRFRPPRLPRPRPRPLMNPRP" has measured shrunken log2 fold change not below -0.2. Thanks!
class 0

Hello, I need to know if "RRIRARPPRLPRPRPRPMSNPRP" has measured shrunken log2 fold change not below -0.2. Thanks!
class 0

Hello, I need to know if "RRIRRRPPRLPRPRPRPTVCPRP" has measured shrunken log2 fold change not below -0.2. Thanks!
class 1

Hello, I need to know if "RRIRVRPPRLPRPRPRPEVKPRP" has measured shrunken log2 fold change not below -0.2. Thanks!
class 1

Hello, I need to know if "RRIRVRPPRLPRPRPRPSHDPRP" has measured shrunken log2 fold change not below -0.2. Thanks!
class 1

Hello, I need to know if "RRIRERPPRLPRPRPRPDHCPRP" has measured shrunken log2 fold change not below -0.2. Thanks!
class 1

Hello, I need to know if "RRIRMRPPRLPRPRPRPPCYPRP" has measured shrunken log2 fold change not below -0.2. Thanks!
class 1

Data origin: the supplement of paper PMC9112550
